Target: T1, Lsm1-7 heptamer (Saccharomyces cerevisiae, UniProt P47017;P38203;P57743;P40070;P40089;Q06406;P53905 …)
T1 sequence 1: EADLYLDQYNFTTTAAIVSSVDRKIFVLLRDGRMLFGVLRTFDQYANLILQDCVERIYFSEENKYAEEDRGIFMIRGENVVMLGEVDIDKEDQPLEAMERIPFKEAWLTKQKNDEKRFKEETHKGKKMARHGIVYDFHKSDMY
T1 sequence 2: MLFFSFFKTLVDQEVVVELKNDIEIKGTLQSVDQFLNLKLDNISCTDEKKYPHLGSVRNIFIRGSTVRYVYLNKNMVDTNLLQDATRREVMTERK
T1 sequence 3: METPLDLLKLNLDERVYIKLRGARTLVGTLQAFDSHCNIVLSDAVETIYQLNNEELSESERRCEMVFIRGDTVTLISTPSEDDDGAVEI
T1 sequence 4: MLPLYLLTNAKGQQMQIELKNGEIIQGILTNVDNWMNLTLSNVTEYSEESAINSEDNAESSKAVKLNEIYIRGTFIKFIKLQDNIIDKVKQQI
T1 sequence 5: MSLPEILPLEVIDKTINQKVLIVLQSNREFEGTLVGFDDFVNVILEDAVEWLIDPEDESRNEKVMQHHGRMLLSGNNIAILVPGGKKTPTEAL
T1 sequence 6: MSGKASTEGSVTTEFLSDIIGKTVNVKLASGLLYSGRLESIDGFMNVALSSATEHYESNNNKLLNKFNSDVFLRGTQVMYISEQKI
T1 sequence 7: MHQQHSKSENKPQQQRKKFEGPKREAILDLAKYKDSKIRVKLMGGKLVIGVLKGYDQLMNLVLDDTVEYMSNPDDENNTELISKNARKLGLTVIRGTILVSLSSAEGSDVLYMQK
Test: BLI
Value type: Kd

UUUUUUUU (ssRNA) [oligo-U (U8)] = ~2000 nM
